biological target: Cytochrome P450 2C9 (Homo sapiens); experiment: Cytochrome panel assay with activity outcomes; details: recombinant CYP, pro-luciferin dealkylation, luminescence, p450-cyp2c9; series mostly up to 57.1 µM
About 4,000 (25%) of roughly 16,000 compounds were called active. Not shown: some 26% with an inconclusive outcome. Not all results are given here.
property-label: AC50

For orientation, consider the following solved cases.
smiles-record: CN(C)c1ncc2nc(-c3cccs3)c(=O)n(-c3ccccc3)c2n1
property-label: AC50
value: inactive

smiles-record: COc1ccc(-n2c(=O)c(-c3ccccc3)nc3cncnc32)cc1
property-label: AC50
value: inactive

smiles-record: COc1ccc(C[C@H](N)C(=O)N[C@@H]2[C@H](O)[C@H](n3cnc4c(N(C)C)ncnc43)O[C@@H]2CO)cc1
property-label: AC50
value: inactive

smiles-record: O=c1c(-c2cccs2)nc2cncnc2n1-c1ccccc1
property-label: AC50
value: 10 µM (active)

# batch: return AC50 for each of the 2 compounds below
1. O=c1c(-c2cccc(Cl)c2)nc2cncnc2n1-c1ccccc1
2. O=c1c(-c2ccccc2)nc2cncnc2n1-c1ccccc1

10 µM (active)
15.8 µM (active)

====

target: Cytochrome P450 2C9 (Homo sapiens); experiment: Cytochrome panel assay with activity outcomes; settings: recombinant CYP, pro-luciferin dealkylation, luminescence, p450-cyp2c9; series mostly up to 57.1 µM
Hit rate of the full screen: of about 16,000 compounds, about 4,000 (25%) were called active. Roughly 26% stayed inconclusive and do not appear here. The call rests on the fitted dose curve; in most records, active means well fitted curve in the direction sought with a large enough effect; inconclusive means small, poorly fitted or top-dose-only effect, or effect the other way; inactive means no such curve, though single readings can be large or run the other way. The list is a sample of the results.
Bench note: report the call from Y for active, N for inactive

smiles-record: COc1ccc(N(CC(=O)NN=C2CCCC2)S(=O)(=O)c2ccccc2)cc1
class-assignment: Y
--
smiles-record: Cc1cc(=O)[nH]c2ccccc12
class-assignment: N

Field: outcome | Entry: Cc1ccc(-n2ccc(=O)c(-c3ccnc(SCc4cccc(Cl)c4)n3)n2)cc1
Y

What did the test return for CCn1c(SCc2ccc(C)cc2)nnc1-c1nn(-c2ccccc2)ccc1=O ?
N

Hello, I am checking results. What call was entered for O=C(CC(=O)NN=C1CCCC1)NCCc1ccccc1 ?
N

Could you kindly confirm the outcome this assay logged for COCCCNC(=O)CN(c1ccc(OC)cc1)S(=O)(=O)c1ccc(NC(C)=O)cc1 ?
Y

====

molecular target: Cytochrome P450 2C9 (Homo sapiens); assay: Cytochrome panel assay with activity outcomes; conditions: recombinant CYP, pro-luciferin dealkylation, luminescence, p450-cyp2c9; series mostly up to 57.1 µM
The whole screen tested about 16,000 compounds, of which about 4,000 (25%) were called active. Roughly 26% stayed inconclusive and do not appear here. The call rests on the fitted dose curve; in most records, active means well fitted curve in the direction sought with a large enough effect; inconclusive means small, poorly fitted or top-dose-only effect, or effect the other way; inactive means no such curve, though single readings can be large or run the other way. These entries were drawn from the full list.
Lab note: assign the record to one of active, inactive

Reference set, count: 4
smiles-record: Cc1cc(C)n2nc(SCN3C(=O)c4ccccc4C3=O)nc2n1
class-assignment: inactive

smiles-record: CC(C)CC(=O)N1CCC(O)(CS(=O)(=O)Cc2ccc(Cl)cc2)CC1
class-assignment: inactive

smiles-record: Cc1cc(F)ccc1S(=O)(=O)Nc1ccccc1C(=O)Nc1ccccc1N1CCOCC1
class-assignment: active

smiles-record: COc1ccc(C(OCCN2CCC[C@@H](C(=O)O)C2)(c2ccc(OC)cc2)c2ccc(OC)cc2)cc1
class-assignment: inactive

Now look at this one.
What classification did COc1ccccc1CNC(=O)CSc1nc2nc(C)cc(C)n2n1 end up with in this test?
inactive
